- Test Details: solvent given as SMILES
- Conditions Used: in CC#N
Lab note: anything with absorption maximum at or over 400 nm counts as 1 (yes); the rest go in 0 (no).

Incoming: API: above_or_equal(metric=absorption maximum, cutoff=400 nm) for item "CN(C)c1ccc(/C=C/c2nc3cc(Br)ccc3nc2-c2ccccc2)cc1"
Outgoing: 1 (yes)

Incoming: API: above_or_equal(metric=absorption maximum, cutoff=400 nm) for item "O=C1c2ccccc2-c2ccccc21"
Outgoing: 0 (no)

Incoming: API: above_or_equal(metric=absorption maximum, cutoff=400 nm) for item "Cc1ccc2nc3[nH]c(=O)[nH]c(=O)c3nc2c1"
Outgoing: 0 (no)

Incoming: API: above_or_equal(metric=absorption maximum, cutoff=400 nm) for item "C(=C\c1nc2c3ccccc3c3ccccc3c2o1)/c1ccccc1"
Outgoing: 0 (no)

Incoming: API: above_or_equal(metric=absorption maximum, cutoff=400 nm) for item "COc1ccc(C#Cc2cc3ccccc3oc2=O)cc1"
Outgoing: 0 (no)

Incoming: API: above_or_equal(metric=absorption maximum, cutoff=400 nm) for item "c1ccc(C[n+]2ccc(-c3cc[n+](Cc4ccccc4)cc3)cc2)cc1"
Outgoing: 0 (no)

Incoming: API: above_or_equal(metric=absorption maximum, cutoff=400 nm) for item "CC1=[N+]2C(=C(c3ccccc3)c3c4ccccc4c(C)n3[B-]2(F)F)c2ccccc21"
Outgoing: 1 (yes)

Incoming: API: above_or_equal(metric=absorption maximum, cutoff=400 nm) for item COc1ccc(-c2pc3ccccc3s2)cc1 (stereo unspecified)
Outgoing: 0 (no)

Incoming: API: above_or_equal(metric=absorption maximum, cutoff=400 nm) for item "COC(=O)c1cccc2c1C#Cc1c(NC(C)=O)cccc1OCCCO2"
Outgoing: 0 (no)

Incoming: API: above_or_equal(metric=absorption maximum, cutoff=400 nm) for item "COc1ccc(C#Cc2ccc(C#Cc3ccc(P(=O)(c4ccc(C#Cc5ccc(C#Cc6ccc(OC)cc6)cc5)cc4)c4ccc(C#Cc5ccc(C#Cc6ccc(OC)cc6)cc5)cc4)cc3)cc2)cc1"
Outgoing: 0 (no)

###

- Test Details: solvent given as SMILES
- Conditions Used: in ClC(Cl)Cl
Can you tell me absorption maximum for the items I'm about to list?
Your answer is read as nm, so omit the unit and give the number.

Incoming: Could you share which absorption maximum value was measured for "N#Cc1cc2ccc3cc(C#N)c4ccccc4c3c2c2ccccc12" ?
Outgoing: 422

Incoming: Could you share which absorption maximum value was measured for "CC(=O)c1c2c(cc3ccc(N(C)C)cc13)CCC2" ?
Outgoing: 377

Incoming: Could you share which absorption maximum value was measured for "c1ccc2c(-n3c4ccccc4c4ccccc43)cccc2c1" ?
Outgoing: 324

Incoming: Could you share which absorption maximum value was measured for "O=C1CCCC2=C1CC1=C(CCCC1=O)N2NC(=O)c1ccccc1" ?
Outgoing: 370

Incoming: Could you share which absorption maximum value was measured for "CCN(CC)c1ccc2cc(-c3ccc(-c4c5ccccc5c(-c5ccc(-c6cc7ccc(N(CC)CC)cc7oc6=O)cc5)c5ccccc45)cc3)c(=O)oc2c1" ?
Outgoing: 412

Incoming: Could you share which absorption maximum value was measured for "COC(=O)c1ccc2c3ccc(C(=O)OC)c4c(C(=O)OC)ccc(c5ccc(C(=O)OC)c1c25)c43" ?
Outgoing: 469

Incoming: Could you share which absorption maximum value was measured for "CC(C)(C)NC(=O)c1ccc2ccc3cccc4ccc1c2c34" ?
Outgoing: 377

Incoming: Could you share which absorption maximum value was measured for "CCCN1c2ccccc2Sc2cc(/C=C\c3cc(=O)oc4cc(C)c(Cl)cc34)ccc21" ?
Outgoing: 432

Incoming: Could you share which absorption maximum value was measured for "C[Si](C)(C)c1sc([Si](C)(C)C)c2c1sc1c2sc2sc3sc4c(sc5c([Si](C)(C)C)sc([Si](C)(C)C)c54)c3c21" ?
Outgoing: 332
